- systemName: hROMK1 (Kir1.1) (Homo sapiens, UniProt P48048)
- assay: ^86Rb^+ Efflux Assay
- experimentalConditions: CHO-DHFR- cells stably expressing hROMK1; potency ranges
pIC50: −log10 of the molar value.
measuredQuantity: pIC50

- molecule: "O=[N+]([O-])c1ccc(CCC2CCN(CCc3ccc([N+](=O)[O-])cc3)CC2)cc1 [Example 3]"
  result: "≥ 6.70"
- molecule: "Cc1c(/C=C/C2CCN(C(=O)Cc3ccc(-n4cnnn4)cc3)CC2)ccc2c1COC2=O [Example 41]"
  result: "≥ 6.70"
- molecule: "CCOC(=O)C1(CCc2ccc(F)c(C#N)c2)CCN(C(=O)Cc2ccc(-n3cnnn3)cc2)CC1 [Example 15]"
  result: "≥ 6.30"
- molecule: "O=C1OCc2c1ccc(CCC1CCN(C(=O)Cc3ccc(-n4cnnn4)cc3)CC1)c2Br [Example 59]"
  result: "≥ 6.70"
- molecule: "O=C1OCc2cc(/C=C/C3CCN(C(=O)Cc4ccc(-n5cnnn5)cc4)CC3)ccc21 [Example 6]"
  result: "≥ 6.70"
- molecule: "O=C1OCc2cc(CCC3CCN(C(=O)Cc4ccc5c(c4)COC5=O)CC3)ccc21 [Example 50]"
  result: "≥ 6.30"
- molecule: "COc1cc(CCN2CCC(CCc3ccc4c(c3)COC4=O)CC2)ccc1C#N [Example 71]"
  result: "≥ 6.70"
- molecule: "O=C1OCCc2cc(CCC3CCN(C(=O)C4CCc5cc(-n6cnnn6)ccc54)CC3)ccc21 (centres unmarked) [Example 66]"
  result: "≥ 6.70"
- molecule: "Cc1c(CC(O)C2CCN(C[C@H](O)c3ccc4c(c3C)COC4=O)CC2)ccc2c1COC2=O (some centres unmarked) [Example 87]"
  result: "≥ 6.70"
- molecule: "N#Cc1ccc(/C=C/C2CCN(CCc3ccc4c(c3)COC4=O)CC2)cc1 [Example 84]"
  result: "≥ 6.30"
- molecule: "CC1Cc2cc(CCC3CCN(C(=O)Cc4ccc(-n5cnnn5)cc4)CC3)ccc2C(=O)O1 (centres unmarked) [Example 80]"
  result: "≥ 6.70"
- molecule: "N#Cc1cc(/C=C/C2CCN(C(=O)Cc3ccc4c(c3)COC4=O)CC2)ccc1F [Example 48]"
  result: "≥ 6.30"
- molecule: "N#Cc1c(F)ccc(CCC2(O)CCN(C(=O)Cc3ccc(-n4cnnn4)cc3)CC2)c1Cl [Example 40]"
  result: "≥ 6.30"
- molecule: "COc1cc(CC(=O)N2CCC(CCc3ccc4c(c3)CCOC4=O)CC2)c(F)cc1C#N [Example 67]"
  result: "≥ 6.30"
- molecule: "CN(C)C1(CCc2ccc(F)c(C#N)c2)CCN(C(=O)Cc2ccc(-n3cnnn3)cc2)CC1 [Example 82]"
  result: "≥ 6.30"
- molecule: "N#Cc1cc(CCC2(O)CCN(C(=O)Cc3ccc(-n4cnnn4)cc3C(F)(F)F)CC2)ccc1F [Example 31]"
  result: "≥ 6.30"
- molecule: "O=C1OCc2cc(CCC3CCN(C(=O)Cc4ccc(-n5cnnn5)cc4)CC3)ccc21 [Example 7]"
  result: "≥ 6.30"

###

Readings of IC50 for the listed compounds
- systemName: hROMK1 (Kir1.1) (Homo sapiens, UniProt P48048)
- Sequence (P48048 1-391): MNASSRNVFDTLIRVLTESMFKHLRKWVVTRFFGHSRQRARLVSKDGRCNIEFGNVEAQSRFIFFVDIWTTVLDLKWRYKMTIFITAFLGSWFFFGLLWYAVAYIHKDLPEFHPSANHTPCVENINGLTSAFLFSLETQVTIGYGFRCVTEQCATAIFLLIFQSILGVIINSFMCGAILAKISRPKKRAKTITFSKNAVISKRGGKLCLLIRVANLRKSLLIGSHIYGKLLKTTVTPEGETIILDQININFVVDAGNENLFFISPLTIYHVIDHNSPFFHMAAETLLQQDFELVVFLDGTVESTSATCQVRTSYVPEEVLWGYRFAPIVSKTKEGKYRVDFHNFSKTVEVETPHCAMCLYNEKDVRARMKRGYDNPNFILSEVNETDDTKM
- assay: ^86Rb^+ Efflux Assay
- experimentalConditions: CHO-DHFR- cells stably expressing hROMK1; potency ranges

- compound: "O=C(Cc1ccc(-n2cnnn2)cc1)N1CCC(O)(CCc2ccc3nonc3c2)CC1"
  systemName: "hROMK1 (Kir1.1) (Homo sapiens, UniProt P48048)"
  IC50: "≤ 500 nM"
- compound: "N#Cc1cc(C#CC2(O)CCN(C(=O)Cc3ccc(-n4cnnn4)cc3)CC2)ccc1F"
  systemName: "hROMK1 (Kir1.1) (Homo sapiens, UniProt P48048)"
  IC50: "≤ 500 nM"
- compound: "O=C(Cc1ccc(-n2cnnn2)cc1)N1CCC(CCc2ccc([N+](=O)[O-])cc2)CC1"
  systemName: "hROMK1 (Kir1.1) (Homo sapiens, UniProt P48048)"
  IC50: "≤ 200 nM"
- compound: "O=C(Cc1ccc(-n2cnnn2)cc1)N1CCC(Sc2ccc([N+](=O)[O-])cc2)CC1"
  systemName: "hROMK1 (Kir1.1) (Homo sapiens, UniProt P48048)"
  IC50: "≤ 200 nM"
- compound: "Cc1cc(/C=C/C2CCN(CCc3ccc4c(c3)COC4=O)CC2)ccc1C#N"
  systemName: "hROMK1 (Kir1.1) (Homo sapiens, UniProt P48048)"
  IC50: "≤ 200 nM"
- compound: "O=C1OCc2cc(/C=C/C3CCN(C(=O)Cc4ccc5c(c4)COC5=O)CC3)ccc21"
  systemName: "hROMK1 (Kir1.1) (Homo sapiens, UniProt P48048)"
  IC50: "≤ 500 nM"
- compound: "O=C1OCc2cc(SC3CCN(C(=O)Cc4ccc(-n5cnnn5)cc4)CC3)ccc21"
  systemName: "hROMK1 (Kir1.1) (Homo sapiens, UniProt P48048)"
  IC50: "≤ 500 nM"
- compound: "Cc1c(C(O)CC2CCN(C[C@H](O)c3ccc4c(c3C)COC4=O)CC2)ccc2c1COC2=O (some centres unmarked)"
  systemName: "hROMK1 (Kir1.1) (Homo sapiens, UniProt P48048)"
  IC50: "≤ 200 nM"
- compound: "COc1cc(CC(=O)N2CCC(CCc3ccc4c(c3)COC4=O)CC2)ccc1C#N"
  systemName: "hROMK1 (Kir1.1) (Homo sapiens, UniProt P48048)"
  IC50: "≤ 500 nM"
- compound: "COc1cc(CC(=O)N2CCC(CCc3ccc4c(c3)COC4=O)CC2)c(F)cc1C#N"
  systemName: "hROMK1 (Kir1.1) (Homo sapiens, UniProt P48048)"
  IC50: "≤ 500 nM"
- compound: "N#Cc1c(F)ccc(CCC2(O)CCN(C(=O)Cc3ccc(-n4cnnn4)cc3)CC2)c1F"
  systemName: "hROMK1 (Kir1.1) (Homo sapiens, UniProt P48048)"
  IC50: "≤ 500 nM"
- compound: "N#Cc1cc(CCC2(O)CCN(C(=O)Cc3ccc(-n4cnnn4)cc3)CC2)ccc1F"
  systemName: "hROMK1 (Kir1.1) (Homo sapiens, UniProt P48048)"
  IC50: "≤ 500 nM"
- compound: "N#Cc1ccc(CC(=O)N2CCC(CCc3ccc4c(c3)COC4=O)CC2)cc1Br"
  systemName: "hROMK1 (Kir1.1) (Homo sapiens, UniProt P48048)"
  IC50: "≤ 500 nM"
- compound: "COc1cc(C#N)c(F)cc1CC(=O)N1CCC(CCc2ccc3c(c2)COC3=O)CC1"
  systemName: "hROMK1 (Kir1.1) (Homo sapiens, UniProt P48048)"
  IC50: "≤ 200 nM"
- compound: "O=C1OCc2cc(OCC3CCN(C(=O)Cc4ccc(-n5cnnn5)cc4)CC3)ccc21"
  systemName: "hROMK1 (Kir1.1) (Homo sapiens, UniProt P48048)"
  IC50: "≤ 200 nM"
- compound: "O=C1OCc2cc(SC3CCN(CC(O)c4ccc5c(c4)COC5=O)CC3)ccc21 (centres unmarked)"
  systemName: "hROMK1 (Kir1.1) (Homo sapiens, UniProt P48048)"
  IC50: "≤ 500 nM"
- compound: "COC(=O)C1(CCc2ccc([N+](=O)[O-])cc2)CCN(CCc2ccc([N+](=O)[O-])cc2)CC1"
  systemName: "hROMK1 (Kir1.1) (Homo sapiens, UniProt P48048)"
  IC50: "≤ 200 nM"

###

# IC50 per record follows
- systemName: UniProtKB P48048
- assay: Thallium Flux Assay (FluxOR, FLIPR-Tetra)
- experimentalConditions: HEK293 cells stably expressing hROMK; potency ranges

- compound: "Cc1c([C@@H](O)CN2CCC(C[S+]([O-])c3ccc4c(c3C)COC4=O)CC2)ccc2c1COC2=O (some centres unmarked) [Example 96]"
  systemName: "UniProtKB P48048"
  IC50: "≤ 100 nM"
- compound: "Cc1c([C@@H](O)CN2CCC(CN(C)c3ccc(C#N)cn3)CC2)ccc2c1COC2=O [Example 93]"
  systemName: "UniProtKB P48048"
  IC50: "≤ 200 nM"
- compound: "O=C1OCc2cc(SC3CCN(CC(O)c4ccc5c(c4)COC5=O)CC3)ccc21 (centres unmarked) [Example 85]"
  systemName: "UniProtKB P48048"
  IC50: "≤ 200 nM"
- compound: "Cc1c(CCN2CCC(NCc3ccc(C#N)c(F)c3)CC2)ccc2c1COC2=O [Example 90]"
  systemName: "UniProtKB P48048"
  IC50: "≤ 200 nM"
- compound: "Cc1c(CCN2CCC(NCc3ccc4c(c3)COC4=O)CC2)ccc2c1COC2=O [Example 88]"
  systemName: "UniProtKB P48048"
  IC50: "≤ 100 nM"
